EXPERIMENTAL_SYSTEM: UPR counterscreen luciferase reporter, luminescence
RUN_DESCRIPTION: luciferase reporter activation, UPR counterscreen line – cell-based, luminescence, counter-screen for adaptive UPR activator project, dose response (AID 489027)
Activity calls are given as the source filed them. No rule for the calls is given here.
Outcomes: YES = active, NO = inactive

[
  {
    "COMPOUND": "Cc1[nH]c2ccccc2c1/C=C/c1nc2ccccc2c(=O)n1-c1ccc([N+](=O)[O-])cc1",
    "ASSIGNED_LABEL": "NO"
  },
  {
    "COMPOUND": "c1ccc(Oc2c3ccccc3nc3ccccc23)cc1",
    "ASSIGNED_LABEL": "NO"
  },
  {
    "COMPOUND": "CC(C)N=C(NS(=O)(=O)c1ccccc1)C(Cl)(Cl)Cl",
    "ASSIGNED_LABEL": "NO"
  },
  {
    "COMPOUND": "Cc1c(C(=O)Nc2nccs2)oc2ccc(Br)cc12",
    "ASSIGNED_LABEL": "NO"
  },
  {
    "COMPOUND": "CCOc1cc(/C=C(\\C#N)c2[nH]nc(N)c2C#N)ccc1O",
    "ASSIGNED_LABEL": "NO"
  },
  {
    "COMPOUND": "Fc1ccc(Nc2nc(NCc3ccco3)c3ccccc3n2)cc1",
    "ASSIGNED_LABEL": "NO"
  },
  {
    "COMPOUND": "Nc1nc(SCc2ccc(Cl)cc2Cl)nc2nc3c(cc12)CCCC3",
    "ASSIGNED_LABEL": "NO"
  },
  {
    "COMPOUND": "COc1ccc(-c2cc(=O)oc3c(C)c(OC(=O)c4cccs4)ccc23)cc1",
    "ASSIGNED_LABEL": "NO"
  },
  {
    "COMPOUND": "Cc1c(O)cc2c(c1O)C(=O)CC(c1ccccc1)O2 (stereo not drawn)",
    "ASSIGNED_LABEL": "YES"
  },
  {
    "COMPOUND": "O=C1Nc2ccccc2/C1=C/c1ccc([N+](=O)[O-])cc1",
    "ASSIGNED_LABEL": "NO"
  },
  {
    "COMPOUND": "CCOC(=O)c1c(NC(=O)CNC2CCCc3ccccc32)sc(C(N)=O)c1C (stereo not drawn)",
    "ASSIGNED_LABEL": "NO"
  },
  {
    "COMPOUND": "Cc1sc(NC(=O)c2cc(-c3ccc(Cl)cc3)nc3ccccc23)c(C(N)=O)c1C",
    "ASSIGNED_LABEL": "NO"
  },
  {
    "COMPOUND": "Cc1c(CCOC(=O)C23CC4(C)CC(C)(CC(C)(C4)C2)C3)sc[n+]1CC(=O)c1ccccc1",
    "ASSIGNED_LABEL": "NO"
  },
  {
    "COMPOUND": "Oc1ccc(/C=N/Nc2ncnc3c2ncn3Cc2ccccc2)cc1O",
    "ASSIGNED_LABEL": "YES"
  },
  {
    "COMPOUND": "CCCCCCCCCCOC(=O)Cn1c(COc2ccc(C)cc2)[n+](C)c2ccccc21",
    "ASSIGNED_LABEL": "NO"
  },
  {
    "COMPOUND": "Cc1cc(C)c2c(n1)sc1c(-c3ccccc3)c(C#N)c(N)nc12",
    "ASSIGNED_LABEL": "NO"
  },
  {
    "COMPOUND": "O=C(/C=C\\c1cn(-c2ccccc2)nc1-c1ccccc1)Nc1nccs1",
    "ASSIGNED_LABEL": "NO"
  },
  {
    "COMPOUND": "CC1=C(/C=C/C(C)=C/C=C/C(C)=C/C(=O)Nc2ccc(O)cc2)C(C)(C)CCC1",
    "ASSIGNED_LABEL": "YES"
  }
]

====

EXPERIMENTAL_SYSTEM: UPR counterscreen luciferase reporter, luminescence
RUN_DESCRIPTION: luciferase reporter activation, UPR counterscreen line – cell-based, luminescence, counter-screen for adaptive UPR activator project, dose response (AID 489027)
Activity calls are given as the source filed them. No rule for the calls is given here.
Outcomes: active, inactive

[
  {
    "COMPOUND": "COc1ccccc1CCNC(=O)C1CCN(c2nnc(C)c3c(C)n(-c4ccc(C)cc4)nc23)CC1",
    "ASSIGNED_LABEL": "active"
  },
  {
    "COMPOUND": "CCOc1ccc(-n2nc3ccc(NC(=O)c4ccc5c(c4)OCCO5)cc3n2)cc1",
    "ASSIGNED_LABEL": "inactive"
  },
  {
    "COMPOUND": "COc1ccc2cc1Oc1ccc(cc1)CC1c3c(cc(OC)c4c3Oc3cc5c(cc3O4)CCNC5C2)CCN1C (centres undefined)",
    "ASSIGNED_LABEL": "inactive"
  },
  {
    "COMPOUND": "CCOc1ccc(-c2nnc(SCC(=O)Nc3ccc4c(c3)c3ccccc3n4CC)n2N)cc1",
    "ASSIGNED_LABEL": "active"
  },
  {
    "COMPOUND": "Cc1cccn2c(=O)c3cc(C(=O)NC4CCCCCC4)sc3nc12",
    "ASSIGNED_LABEL": "inactive"
  },
  {
    "COMPOUND": "CC1=CC(C)(C)N2C(=O)C(=O)c3cc(OC(=O)c4ccco4)cc1c32",
    "ASSIGNED_LABEL": "inactive"
  },
  {
    "COMPOUND": "CC(C)c1ccc(C2C3=C(COC3=O)Nc3cc4c(cc32)OCO4)cc1 (centres undefined)",
    "ASSIGNED_LABEL": "inactive"
  },
  {
    "COMPOUND": "COc1cc(SC#N)ccc1N=Cc1c(C)[nH]n(-c2ccc(Cl)cc2)c1=O",
    "ASSIGNED_LABEL": "active"
  },
  {
    "COMPOUND": "CCOC(=O)C1=C(O)/C(=C/c2cn(CC(=O)NCC3CCCO3)c3ccccc23)SC1=Nc1ccc(C)cc1 (centres undefined)",
    "ASSIGNED_LABEL": "inactive"
  },
  {
    "COMPOUND": "COc1ccc(C(CCNCc2ccc(F)cc2)c2ccc(F)cc2)cc1 (centres undefined)",
    "ASSIGNED_LABEL": "active"
  },
  {
    "COMPOUND": "Cn1nnnc1Sc1ncnc2scc(-c3ccc(Br)cc3)c12",
    "ASSIGNED_LABEL": "active"
  },
  {
    "COMPOUND": "NCCOc1ccc(C23CC4CC(CC(C4)C2)C3)cc1",
    "ASSIGNED_LABEL": "active"
  },
  {
    "COMPOUND": "Cc1ccc2nsnc2c1NC(=O)c1ccc(-c2cc(Cl)ccc2Cl)o1",
    "ASSIGNED_LABEL": "inactive"
  },
  {
    "COMPOUND": "O=C(/C=C/c1ccccc1)NC(NC(=S)Nc1cccc(Cl)c1)C(Cl)(Cl)Cl (centres undefined)",
    "ASSIGNED_LABEL": "inactive"
  }
]

====

EXPERIMENTAL_SYSTEM: UPR counterscreen luciferase reporter, luminescence
RUN_DESCRIPTION: luciferase reporter activation, UPR counterscreen line – cell-based, luminescence, counter-screen for adaptive UPR activator project, dose response (AID 489027)
The source made the active and inactive calls. How the calls were made is not given here.
Outcomes: Yes = active, No = inactive

[
  {
    "MOLECULE": "CN(c1ccccc1)S(=O)(=O)c1cccc(C(=O)NCCc2ccc(O)c(O)c2)c1",
    "EXPERIMENTAL_SYSTEM": "UPR counterscreen luciferase reporter, luminescence",
    "ASSIGNED_LABEL": "Yes"
  },
  {
    "MOLECULE": "Cc1nn(Cc2c(Cl)cccc2Cl)c(C)c1NC(=O)c1sc2ccccc2c1Cl",
    "EXPERIMENTAL_SYSTEM": "UPR counterscreen luciferase reporter, luminescence",
    "ASSIGNED_LABEL": "Yes"
  },
  {
    "MOLECULE": "CCOc1cc(/C=N\\Nc2ccc([N+](=O)[O-])cc2)ccc1OCC(=O)Nc1ccc(C)c(C)c1",
    "EXPERIMENTAL_SYSTEM": "UPR counterscreen luciferase reporter, luminescence",
    "ASSIGNED_LABEL": "No"
  },
  {
    "MOLECULE": "CCCCCCCCCn1c2c(c(=N)c3c1CCC3)CCCC2",
    "EXPERIMENTAL_SYSTEM": "UPR counterscreen luciferase reporter, luminescence",
    "ASSIGNED_LABEL": "Yes"
  },
  {
    "MOLECULE": "CCOc1ccc2nc(NC3=NC(c4ccc(OC)cc4)CC(=O)N3)nc(C)c2c1 (stereo not given)",
    "EXPERIMENTAL_SYSTEM": "UPR counterscreen luciferase reporter, luminescence",
    "ASSIGNED_LABEL": "Yes"
  },
  {
    "MOLECULE": "O=C(Oc1ccccc1/C=C\\C(=O)c1cc2ccccc2o1)c1cccc(F)c1",
    "EXPERIMENTAL_SYSTEM": "UPR counterscreen luciferase reporter, luminescence",
    "ASSIGNED_LABEL": "Yes"
  },
  {
    "MOLECULE": "CCCc1nc2c(c(=O)c3ccccc3n2C)c(=O)n1C1CCCCCC1",
    "EXPERIMENTAL_SYSTEM": "UPR counterscreen luciferase reporter, luminescence",
    "ASSIGNED_LABEL": "No"
  },
  {
    "MOLECULE": "O=C(/C=C/c1cc([N+](=O)[O-])ccc1OC(F)F)Nc1cccc([N+](=O)[O-])c1",
    "EXPERIMENTAL_SYSTEM": "UPR counterscreen luciferase reporter, luminescence",
    "ASSIGNED_LABEL": "No"
  },
  {
    "MOLECULE": "COc1cc(OC)c2c(-c3cccc(-c4ccc(CO)cc4)c3)cc(=O)oc2c1",
    "EXPERIMENTAL_SYSTEM": "UPR counterscreen luciferase reporter, luminescence",
    "ASSIGNED_LABEL": "No"
  },
  {
    "MOLECULE": "COc1ccc(OC)c(NC(=O)c2oc3ccccc3c2NC(=O)C2CC2)c1",
    "EXPERIMENTAL_SYSTEM": "UPR counterscreen luciferase reporter, luminescence",
    "ASSIGNED_LABEL": "No"
  }
]
